biological target: human recombinant Top1 (Homo sapiens, UniProt P11387); assay: Top1-mediated DNA cleavage assay; type: biochemical; conditions: 0.1-100 μM, side-by-side comparison (Figure 4)
Sequence (P11387 whole entry): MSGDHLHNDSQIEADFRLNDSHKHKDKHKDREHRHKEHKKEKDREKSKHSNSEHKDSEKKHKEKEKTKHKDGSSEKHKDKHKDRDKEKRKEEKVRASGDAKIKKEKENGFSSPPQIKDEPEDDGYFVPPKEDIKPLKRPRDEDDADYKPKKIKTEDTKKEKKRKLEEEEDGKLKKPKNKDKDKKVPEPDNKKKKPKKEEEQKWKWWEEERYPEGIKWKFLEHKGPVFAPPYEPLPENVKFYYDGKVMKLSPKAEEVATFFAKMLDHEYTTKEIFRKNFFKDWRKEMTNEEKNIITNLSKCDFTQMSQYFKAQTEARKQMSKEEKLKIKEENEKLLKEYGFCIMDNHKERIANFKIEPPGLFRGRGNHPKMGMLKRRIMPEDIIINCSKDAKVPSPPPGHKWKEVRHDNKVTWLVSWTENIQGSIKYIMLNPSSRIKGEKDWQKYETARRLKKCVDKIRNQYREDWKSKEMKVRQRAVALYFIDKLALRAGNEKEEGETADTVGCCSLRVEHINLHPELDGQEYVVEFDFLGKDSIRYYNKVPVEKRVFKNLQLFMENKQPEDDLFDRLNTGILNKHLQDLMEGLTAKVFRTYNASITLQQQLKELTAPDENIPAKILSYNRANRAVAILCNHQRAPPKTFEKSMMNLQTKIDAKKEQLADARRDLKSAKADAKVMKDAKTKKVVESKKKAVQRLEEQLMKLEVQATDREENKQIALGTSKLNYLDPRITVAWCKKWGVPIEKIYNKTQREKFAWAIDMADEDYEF
QUANTITY MEASURED: concentration dependence of DNA cleavage band intensity

Query: Given the molecule COc1cc2c3c(n(CCCNCCO)c(=O)c2cc1OC)-c1ncccc1C3=O [Compound 31] , write its reported concentration dependence of DNA cleavage band intensity.
Result: behave similarly to 19

Query: Given the molecule COc1cc2c3c(n(CCCN)c(=O)c2cc1OC)-c1ncccc1C3=O [Compound 32] , write its reported concentration dependence of DNA cleavage band intensity.
Result: behave similarly to 19
